These entries and their values trace back to ChEMBL document CHEMBL3045017.

Task for the reader: assign each of the following compounds its reported AFI.
test system: Spodoptera littoralis; assay: Antifeedant activity against final stage larvae of Spodoptera littoralis at 1 mg/l after 8 to 24 hr; assay type: functional
Give bare numbers, in %.

Data request, read-out AFI, for CC[C@H](C)C(=O)O[C@H]1[C@H](O)C[C@@H]2[C@@](C)([C@@H]3C[C@H]4CCO[C@H]4O3)[C@H](C)C[C@H](OC(C)=O)[C@@]2(COC(C)=O)[C@@]12CO2 [14,15-DIHYDROAJUGAPITIN]
92.6

GET /values?readout=AFI&item= CO[C@@H]1C[C@@H]2C[C@@H]([C@@]3(C)[C@H](C)C[C@H](OC(C)=O)[C@]4(COC(C)=O)[C@@H]3C[C@H](O)[C@H](OC(=O)C(C)C)[C@]43CO3)O[C@@H]2O1 [HATIVENE C]
63.3

Sample CO[C@H]1C[C@@H]2C[C@@H]([C@@]3(C)[C@H](C)C[C@H](OC(C)=O)[C@]4(COC(C)=O)[C@@H]3C[C@@H](O)[C@H](OC(=O)C(C)C)[C@]43CO3)O[C@@H]2O1 [HATIVENE A] — what was its AFI?
63.3

Data request, read-out AFI, for CC[C@@H](C)C(=O)O[C@H]1[C@H](O)C[C@@H]2[C@@](C)([C@@H]3C[C@H]4C[C@@H](OC)O[C@H]4O3)[C@H](C)C[C@H](OC(C)=O)[C@@]2(COC(C)=O)[C@@]12CO2 [LUPULIN A]
74.5

We now examine a further compound.
Which AFI reading was recorded for the compound CO[C@@H]1C[C@@H]2C[C@@H]([C@@]3(C)[C@H](C)C[C@H](OC(C)=O)[C@]4(COC(C)=O)[C@@H]3C[C@@H](O)[C@H](OC(=O)C(C)C)[C@]43CO3)O[C@@H]2O1 [HATIVENE B] ?
69
